# Target Or Test System: Type-2 angiotensin II receptor (Rattus norvegicus, UniProt P35351)
# Sequence (P35351 whole entry): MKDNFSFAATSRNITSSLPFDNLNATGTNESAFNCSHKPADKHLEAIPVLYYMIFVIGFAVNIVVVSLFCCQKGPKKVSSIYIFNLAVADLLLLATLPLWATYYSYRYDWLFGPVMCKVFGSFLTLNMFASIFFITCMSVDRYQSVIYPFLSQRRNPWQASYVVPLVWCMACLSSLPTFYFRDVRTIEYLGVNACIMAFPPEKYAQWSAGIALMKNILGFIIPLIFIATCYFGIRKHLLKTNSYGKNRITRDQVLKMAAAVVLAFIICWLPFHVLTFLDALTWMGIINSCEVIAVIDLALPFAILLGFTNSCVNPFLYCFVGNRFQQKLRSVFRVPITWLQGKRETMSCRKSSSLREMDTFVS
Attribute Measured: Ki

Notebook: "CCc1nc2c(C)cc(C)nc2n1-c1ccc(-c2ccccc2-c2nnn[nH]2)cc1" , Ki read as > 10 µM

Origin of values: BindingDB's records for PubMed 7891350
